Tested target: T1, QCD-32g58 LMW SLP (low-molecular-weight subunit of the QCD-32g58 surface layer protein) (Clostridioides difficile QCD-32g58 …, UniProt A0A9R0BMB3, strain)
T1 construct: low-molecular-weight (LMW) subunit of the surface layer protein, cut from the precursor SlpA by Cwp84, C. difficile strain QCD-32g58 (ribotype 027); predicted mass 33.9 kDa; also called QCD-32g58 SLP LMW subunit; LMW subunit; source: purified from C. difficile QCD-32g58 (low-pH glycine extraction, minor SEC peak at about 15 ml); in the Western blot the LMW band of the extracted SLPs
Assay name: SPR; Biacore 3000; SEC-purified QCD-32g58 LMW SLP subunit amine-coupled to a CM5 chip; single-concentration screen, 200 nM VHH; 25 °C, 10 mM HEPES pH 7.4, 150 mM NaCl, 3 mM EDTA, 0.005 % P20
Condition details: both partners purified
Kindly supply the reported kon values for the records listed here.
Give a bare numeral; the unit M⁻¹ s⁻¹ is implied.

Report kon for SLP_VHH12 (VHH, From an immune llama phage display library panned on QCD-32g58 SLP; source: monomeric SEC fractions for SPR; not shown: His6, C-terminal, kept) VHH: QVQLVESGGGLVQAGDSLRLSCAASGGTFSSYAVGWFRQAPGKERQFVAAISWSGRSTEYADSVKGRFTISRDNAKNTVYLQMNSLQPDDTGVYYCAADWSHPENKAELLRLRLWVLSAESSDYWGQGTQVTVSS please.
140000

Report kon for SLP_VHH23 (VHH, From an immune llama phage display library panned on QCD-32g58 SLP; source: monomeric SEC fractions for SPR; not shown: His6, C-terminal, kept) VHH: QVQLVESGGGLVQAGGSLRLSCAASGRTFSSYAVGWFRQAPGKEREFVAAISWSGGYTDYADSVKGRFTISRDNAKNTVYLQMNNLKPEDTAVYYCAADWSHPENKAELLRLRLWVLSAESSDDWGQGTQVTVSS please.
110000

Report kon for SLP_VHH2 (VHH, From an immune llama phage display library panned on QCD-32g58 SLP; source: monomeric SEC fractions for SPR; not shown: His6, C-terminal, kept) VHH: QVKLEESGGGLVQPGGSLRLSCAASGGTFTNYAMAWFRQTPGNDREFVGIISQKGGRTYYADSVKGRFSVSRDNAKNTAYLQMNSLKPEDTAVYYCAAGDSSYYYTRSRYDIWGQGTQVTVSS please.
150000

Report kon for SLP_VHH46 (VHH, From an immune llama phage display library panned on QCD-32g58 SLP; source: monomeric SEC fractions for SPR; not shown: His6, C-terminal, kept) VHH: QVKLEESGGGLVQAGGSLRLSCADSERTFRIYTMAWFRQAPGKERDFVAAISWSGGSTYYADSVKGRFTISRDNAKNTVYLPMNSLKPDDTAVYYCASGGVLSTGSQSDSEYDFWGQGTQVTVSS please.
150000
